tested target: Apelin receptor (Homo sapiens)
experiment summary: apelin receptor inhibitor analogs – cell-based, luminescence, set 2, SAR follow-up (AID 488803)
test conditions: CHO-K1 APJ PathHunter beta-arrestin, antagonist
Activity calls are given as the source filed them.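 The calls were made as follows: active = mean IC50 below 10 µM; inactive = the rest.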
Please answer using one outcome listed in True = active, False = inactive

>>> class_name("O=C(Oc1coc(CSc2ncccn2)cc1=O)c1ccc(S(=O)(=O)N2CCCCC2)cc1")
"False"
>>> class_name("Cc1ccnc(SCc2cc(=O)c(OC(=O)c3ccc(C#N)cc3)co2)n1")
"True"

Exercise: Dear colleague, could you share the recorded outcome for Cc1ccnc(SCc2cc(=O)c(O)co2)n1 when you have a moment?
Solution: False

Exercise: Dear colleague, could you share the recorded outcome for Cc1ccc(NCC(O)c2ccccc2)cc1 (stereo unspecified) when you have a moment?
Solution: False

Exercise: Dear colleague, could you share the recorded outcome for Cc1ccnc(SCc2cc(=O)c(OCc3ccccc3)co2)n1 when you have a moment?
Solution: False
